Listed next: entries and their corresponding pIC50.
# SYSTEM: WRN (Homo sapiens, UniProt Q14191)
# Construct: A His-tagged construct of WRN (AA S2-S1235) was produced and used for the ATPase assay; made in house; host or cells: Sf9 insect cells (baculovirus, pFastBac1)
# Sequence (Q14191 2-1235): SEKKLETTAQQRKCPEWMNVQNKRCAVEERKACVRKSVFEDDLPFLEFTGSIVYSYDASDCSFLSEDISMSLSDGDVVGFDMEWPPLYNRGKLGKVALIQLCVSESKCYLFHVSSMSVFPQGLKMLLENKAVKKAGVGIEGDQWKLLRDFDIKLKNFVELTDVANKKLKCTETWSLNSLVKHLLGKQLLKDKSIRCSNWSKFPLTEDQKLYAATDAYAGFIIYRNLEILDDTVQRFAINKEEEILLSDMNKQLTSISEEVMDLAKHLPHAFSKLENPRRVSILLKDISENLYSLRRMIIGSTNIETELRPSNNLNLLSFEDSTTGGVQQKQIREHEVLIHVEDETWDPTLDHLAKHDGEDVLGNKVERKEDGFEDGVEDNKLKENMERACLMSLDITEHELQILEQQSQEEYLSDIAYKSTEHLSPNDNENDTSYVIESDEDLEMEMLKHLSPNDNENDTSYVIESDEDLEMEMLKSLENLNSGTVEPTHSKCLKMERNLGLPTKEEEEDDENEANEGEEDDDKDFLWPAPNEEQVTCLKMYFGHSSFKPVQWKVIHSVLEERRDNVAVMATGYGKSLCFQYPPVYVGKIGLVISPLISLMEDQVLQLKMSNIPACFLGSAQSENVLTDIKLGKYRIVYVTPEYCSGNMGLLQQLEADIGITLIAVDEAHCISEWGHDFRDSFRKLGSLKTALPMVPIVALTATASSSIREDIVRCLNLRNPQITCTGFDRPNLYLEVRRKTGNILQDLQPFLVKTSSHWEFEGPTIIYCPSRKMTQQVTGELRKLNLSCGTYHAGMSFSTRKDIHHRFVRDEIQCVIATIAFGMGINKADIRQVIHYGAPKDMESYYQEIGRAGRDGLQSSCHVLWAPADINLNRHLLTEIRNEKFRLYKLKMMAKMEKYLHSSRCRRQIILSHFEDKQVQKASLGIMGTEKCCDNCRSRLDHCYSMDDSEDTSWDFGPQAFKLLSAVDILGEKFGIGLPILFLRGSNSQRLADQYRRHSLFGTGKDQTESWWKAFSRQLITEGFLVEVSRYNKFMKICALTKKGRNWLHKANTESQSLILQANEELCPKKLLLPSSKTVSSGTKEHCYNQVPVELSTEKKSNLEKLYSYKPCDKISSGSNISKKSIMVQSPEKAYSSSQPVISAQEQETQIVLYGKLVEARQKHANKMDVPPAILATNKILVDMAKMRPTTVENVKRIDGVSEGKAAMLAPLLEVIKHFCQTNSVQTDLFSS
# EXPERIMENT: WRN ATPase activity assay (ADP-Glo)
# Assay type: biochemical
# DETAILS: 1-hr pre-incubation with enzyme; 25 nM forked dsDNA, 100 μM ATP, 1 nM WRN; geometric mean of at least 2 replicates
pIC50: −log10 of the molar value.

These solved cases illustrate the format of a correct answer.
{"CPD SMILES": "C=CC(=O)Nc1ccccc1-c1c(CC)n(CC(=O)Nc2ccc(F)cc2Cl)c2nc(C)c(C)n2c1=O", "READOUT TYPE": "pIC50", "RESULT": "6.30 to 7.00"}
{"CPD SMILES": "C=CC(=O)Nc1ccccc1-c1c(C)nc2n(CC(=O)Nc3ccc(C(F)(F)F)cc3)c(CC)c(-c3ccc(C(=O)NCC)cc3)c(=O)n12", "READOUT TYPE": "pIC50", "RESULT": "> 7.00"}
{"CPD SMILES": "C=CC(=O)Nc1ccccc1-c1c(C)nc2n(CC(=O)Nc3ccc(F)cc3)c(CC)c(-c3ccccc3)c(=O)n12", "READOUT TYPE": "pIC50", "RESULT": "6.30 to 7.00"}
{"CPD SMILES": "C=CC(=O)Nc1ccccc1-c1c(CC)n(CC(=O)Nc2ccc(F)cc2)c2nc(C)c(C)n2c1=O", "READOUT TYPE": "pIC50", "RESULT": "> 7.00"}
{"CPD SMILES": "C=CS(=O)(=O)Nc1ccccc1-c1c(C)nc2n(CC(=O)Nc3ccc(F)cc3)c(CC)c(-c3ccccc3)c(=O)n12", "READOUT TYPE": "pIC50", "RESULT": "> 7.00"}

Please find the next compound below.
// query Can you look up the measured pIC50 of C=CC(=O)Nc1ccccc1-c1c(CC)n(CC(=O)Nc2ccc(C(F)(F)F)cc2)c2nc(-c3ccccc3)cn2c1=O for me?
// result 6.30 to 7.00

* * *

# SYSTEM: WRN (Homo sapiens)
# Construct: A His-tagged construct of WRN (AA S2-S1235) was produced and used for the ATPase assay; made in house; host or cells: Sf9 insect cells (baculovirus, pFastBac1)
# EXPERIMENT: WRN Helicase activity assay (fluorescence DNA unwinding)
# Type: biochemical
# DETAILS: 1-hr pre-incubation with enzyme; 25 nM forked dsDNA, 100 μM ATP, 1 nM WRN; geometric mean of at least 2 replicates
Listed next: entries and their corresponding IC50.

These solved cases illustrate the format of a correct answer.
{"CPD SMILES": "C=CC(=O)Nc1ccccc1-c1c(CC)n(CC(=O)Nc2ccc(C(F)(F)F)cc2)c2nc(C)c(-c3ccccc3)n2c1=O", "IC50": "100 to 500 nM"}
{"CPD SMILES": "C=CC(=O)Nc1ccccc1-c1c(C)nc2n(CC(=O)Nc3ccc(C(F)(F)F)cc3)c(CC)c(C)c(=O)n12", "IC50": "< 100 nM"}
{"CPD SMILES": "C=CC(=O)Nc1ccccc1-c1c(C)nc2n(CC(=O)Nc3ccc(C(F)(F)F)cc3)c(CC)c(-c3ccc(C(=O)NCC)cc3)c(=O)n12", "IC50": "< 100 nM"}
{"CPD SMILES": "C=CC(=O)Nc1ccccc1-c1c(CC)n(CC(=O)Nc2ccc(F)cc2)c2nc(C)c(C)n2c1=O", "IC50": "< 100 nM"}
{"CPD SMILES": "C=CC(=O)Nc1ccccc1-c1c(C)nc2n(CC(=O)Nc3ccc(F)cc3)c(CC)c(-c3ccccc3)c(=O)n12", "IC50": "100 to 500 nM"}
{"CPD SMILES": "C=CC(=O)Nc1ccccc1-c1c(CC)n(CC(=O)Nc2ccc(C(F)(F)F)cc2)c2nc(-c3ccccc3)cn2c1=O", "IC50": "100 to 500 nM"}

// query Can you look up the measured IC50 of C=CC(=O)Nc1ccccc1-c1c(CC)n(CC(=O)Nc2ccc(F)cc2Cl)c2nc(C)c(C)n2c1=O for me?
// result 100 to 500 nM
